The measurements presented in this section are drawn from PubChem BioAssay (NCI).

I'd be grateful if you could share measured growth for these entries.
test system: NCI-H460 lung; assay: NCI-60 one-dose screen, 48 h (100 = growth as untreated, 0 = no growth, -100 = all killed); conditions: 10 µM
About 83,000 compounds went through this panel and 20% of them were active in at least one assay; those are over-represented in the sample as a whole.
Answers are plain numbers, in %.

Inquiry: Query: growth; subject: `O=C1Nc2ccccc2C1=NC1CCCCC1`
Reply text: 105

Inquiry: Query: growth; subject: CCCC(F)C(=O)O (stereo not drawn)
Reply text: 106

Inquiry: Query: growth; subject: `CSc1cc(SC)ncn1`
Reply text: 119

Inquiry: Query: growth; subject: CCN1CCCC1CNC(=O)c1ncc(-c2ccc(C(F)(F)F)cc2)c(NC2CCCCCC2)n1 (stereo not drawn)
Reply text: 80.4

Inquiry: Query: growth; subject: `CS(=O)(=O)Nc1cccc(-c2cc(-c3ccccc3Cl)c(C#N)c(N)n2)c1`
Reply text: 5.56

Inquiry: Query: growth; subject: `CCN(CC)CCC(=O)Nc1cccc2c1C(=O)c1c(c(O)c3ccccc3c1O)C2=O`
Reply text: 15.5

I would be grateful if you could provide growth for each of the following entries.
1. Cc1nc2ccccc2c(N)c1-c1cc(C)c2c(C)nc3ccccc3c2n1
2. COc1ccc(-c2nc3sc(C4CC4)nn3c2/C=C2/C(=O)Nc3ccc(OC)cc32)cc1

Reply text:
[-75.8, 77.7]
